Listed next: entries and their corresponding Mean fluorescence intensity.
Molecular target: T1, human LAG-3 (full length, on the cell surface) (human, UniProt P18627 23-525)
T1 construct: Full-length human LAG-3 expressed on cells; also called HEK293-hLAG-3; HEK293 cells transfected with LAG-3 gene
T1 sequence: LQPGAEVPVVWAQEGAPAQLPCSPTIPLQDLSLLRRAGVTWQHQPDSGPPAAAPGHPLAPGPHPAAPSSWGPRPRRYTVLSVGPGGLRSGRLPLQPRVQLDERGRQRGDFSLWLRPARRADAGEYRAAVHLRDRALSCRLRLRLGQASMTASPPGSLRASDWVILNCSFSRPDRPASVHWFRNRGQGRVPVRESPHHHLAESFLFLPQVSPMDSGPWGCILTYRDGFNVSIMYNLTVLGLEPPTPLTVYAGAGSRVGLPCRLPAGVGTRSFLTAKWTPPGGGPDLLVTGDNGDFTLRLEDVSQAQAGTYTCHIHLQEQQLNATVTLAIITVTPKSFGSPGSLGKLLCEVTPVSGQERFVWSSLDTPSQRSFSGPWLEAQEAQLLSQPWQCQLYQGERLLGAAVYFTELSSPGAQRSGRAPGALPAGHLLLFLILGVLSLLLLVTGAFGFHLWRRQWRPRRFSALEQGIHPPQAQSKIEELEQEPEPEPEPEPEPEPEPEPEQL
Assay: FACS, HEK293-hLAG-3; 0.013 nM
Protocol: The pIRES plasmid with the monkey-derived full-length gene was transfected into the HEK293 cell line to construct a HEK293 stable cell line containing monkey LAG-3 (herein referred to as HEK293-cLAG-3 stable cell line). […] After counted, the cells were diluted with HBSS to 1-2×10⁶ cells per ml, added with 1% goat serum blocking solution, incubated on ice for 20-30 minutes, and then washed with HBSS for 2 times by centrifugation. […]
Write down the numeric answer in MFI and omit the unit.

Query :: Give Mean fluorescence intensity for the following binder: 105F1E10 (mouse antibody purified from hybridoma) (antibody, V domains shown, also called mAb009-105F1E10) VH: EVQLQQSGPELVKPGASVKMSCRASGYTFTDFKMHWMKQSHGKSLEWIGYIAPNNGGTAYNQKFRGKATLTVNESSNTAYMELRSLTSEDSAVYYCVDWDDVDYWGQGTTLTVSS VL: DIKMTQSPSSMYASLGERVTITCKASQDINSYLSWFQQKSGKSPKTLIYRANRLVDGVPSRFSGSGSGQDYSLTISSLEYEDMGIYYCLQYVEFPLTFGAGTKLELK
Result :: 5

Query :: Give Mean fluorescence intensity for the following binder: 556F6B8 (mouse antibody purified from hybridoma) (antibody, V domains shown, also called mAb123-556F6B8) VH: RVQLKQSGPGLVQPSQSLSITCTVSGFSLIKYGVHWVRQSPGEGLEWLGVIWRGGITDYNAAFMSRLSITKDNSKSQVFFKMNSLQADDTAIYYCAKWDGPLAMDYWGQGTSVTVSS VL: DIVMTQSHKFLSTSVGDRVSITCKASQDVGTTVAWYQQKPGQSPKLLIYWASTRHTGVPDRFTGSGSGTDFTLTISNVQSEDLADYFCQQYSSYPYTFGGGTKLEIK
Result :: 3.6

Query :: Give Mean fluorescence intensity for the following binder: 405B8H3 (mouse antibody purified from hybridoma) (antibody, V domains shown, also called mAb103-405B8H3; 405B81-13) VH: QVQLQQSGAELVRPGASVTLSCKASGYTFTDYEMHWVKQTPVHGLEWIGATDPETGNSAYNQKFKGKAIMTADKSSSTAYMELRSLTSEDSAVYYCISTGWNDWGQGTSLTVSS VL: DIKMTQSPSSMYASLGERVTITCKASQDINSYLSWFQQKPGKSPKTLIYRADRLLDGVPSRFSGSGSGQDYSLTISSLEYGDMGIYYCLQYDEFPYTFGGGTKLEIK
Result :: 5

Query :: Give Mean fluorescence intensity for the following binder: 409D4E10 (mouse antibody purified from hybridoma) (antibody, V domains shown, also called mAb112-409D4E10) VH: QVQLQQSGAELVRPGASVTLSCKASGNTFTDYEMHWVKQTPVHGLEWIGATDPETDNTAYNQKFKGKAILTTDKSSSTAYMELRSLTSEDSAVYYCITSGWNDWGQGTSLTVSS VL: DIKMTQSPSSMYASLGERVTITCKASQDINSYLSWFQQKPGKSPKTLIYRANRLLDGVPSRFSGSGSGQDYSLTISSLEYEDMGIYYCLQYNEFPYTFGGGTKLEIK
Result :: 3.3

Query :: Give Mean fluorescence intensity for the following binder: 409B11E12 (mouse antibody purified from hybridoma) (antibody, V domains shown, also called mAb104-409B11E12) VH: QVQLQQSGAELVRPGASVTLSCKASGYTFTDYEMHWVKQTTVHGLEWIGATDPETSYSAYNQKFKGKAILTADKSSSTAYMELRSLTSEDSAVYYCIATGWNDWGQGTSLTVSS VL: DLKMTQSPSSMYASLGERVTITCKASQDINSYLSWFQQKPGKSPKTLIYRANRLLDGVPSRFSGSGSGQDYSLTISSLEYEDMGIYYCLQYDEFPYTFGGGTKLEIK
Result :: 2.9
